# Test system: PPARg:RXRa DBDmut IVT, anti-RXR (DBD mutation: RXRa K156A/R161A, NR concentration 270 nM, RXRa partner concentration 90 nM)
# Assay overview: PBM binding z-score (relative to random genomic background probes); higher = stronger binding; sequences stand for … in GC…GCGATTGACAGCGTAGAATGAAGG
Measure: PBM binding z-score
In your answer, state the number alone without any accompanying words.

Consider the worked cases shown below.
Query: Recorded PBM binding z-score of AATACAGGGTCATCGTAGGCAAGAGTACGCACAG , please.
Reply: 2.91

Query: Recorded PBM binding z-score of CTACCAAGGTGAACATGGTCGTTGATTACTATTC , please.
Reply: 2.77

Query: Recorded PBM binding z-score of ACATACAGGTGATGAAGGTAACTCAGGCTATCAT , please.
Reply: 1.27

Query: Recorded PBM binding z-score of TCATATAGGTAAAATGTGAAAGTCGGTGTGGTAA , please.
Reply: 4.79

Query: Recorded PBM binding z-score of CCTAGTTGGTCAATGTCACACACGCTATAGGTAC , please.
Reply: 1.5

Query: Recorded PBM binding z-score of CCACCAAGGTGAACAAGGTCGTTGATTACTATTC , please.
Reply: 2.14

Query: Recorded PBM binding z-score of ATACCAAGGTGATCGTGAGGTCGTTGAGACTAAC , please.
Reply: 0.478

Query: Recorded PBM binding z-score of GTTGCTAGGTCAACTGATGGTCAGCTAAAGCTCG , please.
Reply: 5.15

Query: Recorded PBM binding z-score of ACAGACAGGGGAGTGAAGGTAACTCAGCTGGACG , please.
Reply: -0.166

Query: Recorded PBM binding z-score of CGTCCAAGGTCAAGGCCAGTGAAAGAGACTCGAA , please.
Reply: 2.93

More entries:
Query: Recorded PBM binding z-score of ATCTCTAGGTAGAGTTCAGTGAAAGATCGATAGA , please.
Reply: 0.277

Query: Recorded PBM binding z-score of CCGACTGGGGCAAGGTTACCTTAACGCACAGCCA , please.
Reply: 3.34

Query: Recorded PBM binding z-score of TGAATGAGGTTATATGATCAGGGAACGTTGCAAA , please.
Reply: 1.01

Query: Recorded PBM binding z-score of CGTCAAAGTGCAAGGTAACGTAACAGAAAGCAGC , please.
Reply: 0.0283

Query: Recorded PBM binding z-score of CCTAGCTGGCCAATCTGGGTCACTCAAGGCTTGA , please.
Reply: 3.93

Query: Recorded PBM binding z-score of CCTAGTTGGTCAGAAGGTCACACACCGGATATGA , please.
Reply: 1.63

Query: Recorded PBM binding z-score of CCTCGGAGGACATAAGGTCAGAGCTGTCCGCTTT , please.
Reply: 0.213

Query: Recorded PBM binding z-score of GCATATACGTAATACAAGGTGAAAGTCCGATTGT , please.
Reply: -0.0308

Query: Recorded PBM binding z-score of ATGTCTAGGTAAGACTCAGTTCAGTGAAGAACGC , please.
Reply: 0.955

Query: Recorded PBM binding z-score of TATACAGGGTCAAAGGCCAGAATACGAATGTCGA , please.
Reply: 1.98

Query: Recorded PBM binding z-score of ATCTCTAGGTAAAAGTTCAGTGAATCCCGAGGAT , please.
Reply: 1.99

Query: Recorded PBM binding z-score of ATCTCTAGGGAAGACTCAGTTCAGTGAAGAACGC , please.
Reply: 0.54

Query: Recorded PBM binding z-score of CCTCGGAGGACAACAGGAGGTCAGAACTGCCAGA , please.
Reply: 0.236
